- protocol_description: Plasma concentration in SCID mouse xenografted with PTEN deficient human PC3 cells at 244 mg/kg, po administered as suspension after 6 hrs
- Format: ADME, organism-based, PC-3
- Parameters: dose 244 mg/kg, route oral
measurement_type: concentration at 6 h (nM)

1. Cn1c(CC(=O)Nc2ccc(F)c(Cl)c2)nc(N2CCOCC2)cc1=O; 1600

* * *

- protocol_description: Oral bioavailability in SCID mouse at 10 mg/kg
- Format: ADME, organism-based
- condition_notes: in vivo
measurement_type: bioavailability (%)

1. Cn1c(CC(=O)Nc2ccc(F)c(Cl)c2)nc(N2CCOCC2)cc1=O; 52

* * *

- assay_target: Phosphatidylinositol 4,5-bisphosphate 3-kinase catalytic subunit gamma isoform (Homo sapiens, UniProt P48736)
- Sequence (P48736 whole entry, canonical isoform): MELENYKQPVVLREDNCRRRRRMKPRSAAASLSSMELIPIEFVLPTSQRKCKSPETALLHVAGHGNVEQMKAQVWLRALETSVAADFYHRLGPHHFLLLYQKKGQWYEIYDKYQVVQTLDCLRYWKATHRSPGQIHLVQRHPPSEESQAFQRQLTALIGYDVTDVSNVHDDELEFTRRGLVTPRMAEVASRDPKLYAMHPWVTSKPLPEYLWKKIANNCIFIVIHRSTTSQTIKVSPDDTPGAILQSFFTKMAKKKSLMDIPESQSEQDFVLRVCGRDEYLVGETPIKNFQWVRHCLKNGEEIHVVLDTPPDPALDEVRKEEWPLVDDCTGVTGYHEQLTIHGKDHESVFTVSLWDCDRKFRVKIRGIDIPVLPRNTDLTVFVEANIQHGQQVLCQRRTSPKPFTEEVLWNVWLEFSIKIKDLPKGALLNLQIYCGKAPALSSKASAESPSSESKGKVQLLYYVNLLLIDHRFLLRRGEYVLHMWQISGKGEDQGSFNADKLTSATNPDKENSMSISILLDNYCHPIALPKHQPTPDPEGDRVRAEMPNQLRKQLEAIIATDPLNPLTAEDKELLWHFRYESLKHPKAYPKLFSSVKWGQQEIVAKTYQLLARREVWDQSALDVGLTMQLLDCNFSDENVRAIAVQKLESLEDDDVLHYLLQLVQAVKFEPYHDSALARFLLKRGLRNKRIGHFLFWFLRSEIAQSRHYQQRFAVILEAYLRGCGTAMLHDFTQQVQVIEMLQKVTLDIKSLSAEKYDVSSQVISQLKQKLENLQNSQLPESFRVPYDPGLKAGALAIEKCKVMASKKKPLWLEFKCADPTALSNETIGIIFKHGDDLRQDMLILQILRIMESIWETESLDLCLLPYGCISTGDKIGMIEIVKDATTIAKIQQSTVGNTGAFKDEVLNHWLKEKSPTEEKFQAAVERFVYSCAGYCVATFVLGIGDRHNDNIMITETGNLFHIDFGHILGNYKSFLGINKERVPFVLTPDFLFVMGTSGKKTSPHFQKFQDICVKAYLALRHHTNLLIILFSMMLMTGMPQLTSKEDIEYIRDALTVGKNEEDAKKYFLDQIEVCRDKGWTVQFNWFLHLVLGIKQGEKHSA
- protocol_description: Inhibition of PI3Kgamma
pIC50: −log10 of the molar value.
Below: a set of entries, each annotated with reported pIC50.
measurement_type: pIC50

1) Cn1c(CC(=O)Nc2ccc(F)c(Cl)c2)nc(N2CCOCC2)cc1=O; 5.08
2) O=C(Cc1nc(N2CCOCC2)cc(=O)[nH]1)Nc1ccc(Cl)cc1; 5.29
3) Cc1cccc(NC(=O)Cc2nc(N3CCOCC3)cc(=O)[nH]2)c1; 5.15

* * *

- protocol_description: Equilibrium solubility of the compound in phosphate buffer at pH 7.4 after 16 hrs by HPLC analysis
- Assay type: physicochemical
measurement_type: solubility thermodynamic at 16 h

1. O=C(Cc1nc(N2CCOCC2)cc(=O)[nH]1)Nc1cccc(Cl)c1; 9 µM
2. O=C(Cc1nc(N2CCOCC2)cc(=O)[nH]1)Nc1ccc(F)c(Cl)c1; 3 µM
3. Cn1c(CC(=O)Nc2ccc(F)c(Cl)c2)nc(N2CCOCC2)cc1=O; 5 µM

* * *

- assay_target: Phosphatidylinositol 4,5-bisphosphate 3-kinase catalytic subunit gamma isoform (Homo sapiens, UniProt P48736)
- protocol_description: Inhibition of PI3Kgamma
measurement_type: IC50

1) O=C(Cc1nc(N2CCOCC2)cc(=O)[nH]1)Nc1ccc(F)c([N+](=O)[O-])c1; > 10 µM
2) O=C(Cc1nc(N2CCOCC2)cc(=O)[nH]1)Nc1ccc(F)c(F)c1; > 10 µM
3) Cn1c(CC(=O)Nc2ccc(F)c(Br)c2)nc(N2CCOCC2)cc1=O; > 10 µM
